Property: Dmax; scope: individual compounds
molecular target: BCL-XL (Homo sapiens, UniProt Q07817); construct: endogenous in cells; host or cells: MOLT-4; assay: BCL-XL degradation assay, western blot in MOLT-4 cells, 16 h; type: cell-based; conditions: western blot, MOLT-4 cells, 16 h; read-out: Bcl-xL WB in MOLT-4 degradation 16 h: Average Dmax %
Sequence (Q07817 whole entry): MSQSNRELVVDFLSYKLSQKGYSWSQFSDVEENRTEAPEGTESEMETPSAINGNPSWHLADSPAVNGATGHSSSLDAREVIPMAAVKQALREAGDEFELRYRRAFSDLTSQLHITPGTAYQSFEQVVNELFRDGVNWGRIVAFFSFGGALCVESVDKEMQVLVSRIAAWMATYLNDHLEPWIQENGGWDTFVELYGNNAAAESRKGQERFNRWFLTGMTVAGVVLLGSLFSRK

Field: example entries. Status: answers known.
compound.structure	target.system	Dmax
Cc1ncsc1-c1ccc([C@H](C)NC(=O)[C@@H]2C[C@@H](O)CN2C(=O)[C@@H](NC(=O)N2CC(c3ccc(S(=O)(=O)NC(=O)c4nc(N5CCc6cccc(C(=O)Nc7nc8ccccc8s7)c6C5)ccc4-c4cnn(CC5CCCCC5)c4C)cc3)C2)C(C)(C)C)cc1	BCL-XL (Homo sapiens, UniProt Q07817)	> 75%
Cc1ncsc1-c1ccc(CNC(=O)[C@@H]2C[C@@H](O)CN2C(=O)[C@@H](NC(=O)C2(F)CC2)C(C)(C)C)c(OCCN2CC3(C2)CN(C(=O)c2nc(N4CCc5cccc(C(=O)Nc6nc7ccccc7s6)c5C4)ccc2-c2cnn(CC4CCCCC4)c2C)C3)c1	BCL-XL (Homo sapiens, UniProt Q07817)	50 to 75%
C#Cc1ccc([C@H](CO)NC(=O)[C@@H]2C[C@@H](O)CN2C(=O)[C@@H](NC(=O)CCc2ccc(S(=O)(=O)NC(=O)c3nc(N4CCc5cccc(C(=O)Nc6nc7ccccc7s6)c5C4)ccc3-c3cnn(CC4CCCCC4)c3C)cc2)C(C)(C)C)cc1	BCL-XL (Homo sapiens, UniProt Q07817)	> 75%
C#Cc1ccc(CNC(=O)[C@@H]2C[C@@H](O)CN2C(=O)[C@@H](NC(=O)CCCS(=O)(=O)NC(=O)c2nc(N(C)c3cc(C)c(Nc4nc5ccccc5s4)nn3)ccc2-c2cnn(CC3CCCCC3)c2C)C(C)(C)C)cc1	BCL-XL (Homo sapiens, UniProt Q07817)	> 75%
Cc1ncsc1-c1ccc([C@H](C)NC(=O)[C@@H]2C[C@@H](O)CN2C(=O)[C@@H](NC(=O)CCCCCC(=O)N2CCN(CCCC3(Cn4ncc(-c5ccc(N6CCc7cccc(C(=O)Nc8nc9ccccc9s8)c7C6)nc5C(=O)O)c4C)CCCCC3)CC2)C(C)(C)C)cc1	BCL-XL (Homo sapiens, UniProt Q07817)	50 to 75%

Endpoint output: Dmax of Cc1ncsc1-c1ccc([C@H](C)NC(=O)[C@@H]2C[C@@H](O)CN2C(=O)[C@H](c2cc(OC3CCN(CCCS(=O)(=O)NC(=O)c4nc(N5CCc6cccc(C(=O)Nc7nc8ccccc8s7)c6C5)ccc4-c4cnn(CC5CCCCC5)c4C)CC3)no2)C(C)C)cc1 . Value?
< 50%

What do we get for Cc1ncsc1-c1ccc([C@H](C)NC(=O)[C@@H]2C[C@@H](O)CN2C(=O)[C@@H](NC(=O)CCCCCCCC(=O)N(C)CC#Cc2cccc(F)c2OCCCc2sc(N3CCc4cccc(C(=O)Nc5nc6ccccc6s5)c4C3)nc2C(=O)O)C(C)(C)C)cc1 ?
> 75%

Then Cc1ncsc1-c1ccc(CNC(=O)[C@@H]2C[C@@H](O)CN2C(=O)[C@@H](NC(=O)CCOCCOCCOCC#Cc2ccc(OCCCc3sc(N4CCc5cccc(C(=O)Nc6nc7ccccc7s6)c5C4)nc3C(=O)O)cc2)C(C)(C)C)cc1 ?
> 75%
